# credit: patent US8350026B2

- ASSAY INFO: Metabolic stability in human liver microsomes (HLM)
- Format: in vitro ADME
- Design: dose or concentration left out as unconfirmed
- STUDY CONDITIONS: both sexes, human, human liver microsomes, pH 7.4; HLM assay reference compounds; read-out: intrinsic clearance values of HLM assay reference compounds

MOLECULE	CLint scaled
Cc1ncc2n1-c1ccc(Cl)cc1C(c1ccccc1F)=NC2 [Midazolam, reference compound]	> 200 mL/min/kg

* * *

- ASSAY INFO: Metabolic stability in human liver microsomes (HLM)
- Assay type: in vitro ADME
- STUDY CONDITIONS: both sexes, pH 7.4; human liver microsomes 0.5 mg protein/mL, NADPH 1 mM, test compound 0.5 μM, 37° C., 30 minutes; read-out: HLM (apparent clearance)

QUERY SMILES	CL/F at 0.5 μM
O=C(Nc1cc(CNc2ccccc2C(=O)NCCC2CCCC2)ccn1)c1ccco1	> 200 mL/min/kg
CCC(CC)CCNC(=O)c1ccccc1NCc1ccnc(NC(C)=O)c1	> 200 mL/min/kg
O=C(Nc1cc(CNc2ccccc2C(=O)NCCC2=CCCCC2)ccn1)c1ccco1	> 200 mL/min/kg
CCC(CC)CCNC(=O)c1ccccc1NCc1ccnc(NC(=O)c2ccco2)c1	> 200 mL/min/kg
CC(=O)Nc1cc(CNc2ccccc2C(=O)NCCC2CCCC2)ccn1	> 200 mL/min/kg
CCC(CC)CCNC(=O)c1ccccc1NCc1ccnc(NC(=O)c2cnco2)c1	120 mL/min/kg
CC(C)(C)CCNC(=O)c1ccccc1NCc1ccnc(NC(=O)c2ccco2)c1	> 200 mL/min/kg
CC(C)CCCNC(=O)c1ccccc1NCc1ccnc(NC(=O)c2ccco2)c1	> 200 mL/min/kg
COC(=O)Nc1cc(CNc2ccccc2C(=O)NCCC(C)(C)C)ccn1	135 mL/min/kg

* * *

As a worked illustration, we turn to pIC50 data collected for VEGFR-2 (KDR) (Homo sapiens, UniProt P35968).
pIC50: −log10 of the molar value.

QUERY SMILES	pIC50
O=C(Nc1cc(CNc2ccccc2C(=O)NCCC2CCCC2)ccn1)c1ccco1	7.37
O=C(Nc1cc(CNc2ccccc2C(=O)NCCC2=CCCCC2)ccn1)c1ccco1	7.36
CCC(CC)CCNC(=O)c1ccccc1NCc1ccnc(NC(=O)c2ccco2)c1	7.28
CC(C)(C)CCNC(=O)c1ccccc1NCc1ccnc(NC(=O)c2ccco2)c1	7.41
CC(C)CCCNC(=O)c1ccccc1NCc1ccnc(NC(=O)c2ccco2)c1	7.77

* * *

- ASSAY INFO: Metabolic stability in human liver microsomes (HLM)
- Assay type: in vitro ADME
- STUDY CONDITIONS: both sexes, human, human liver microsomes, pH 7.4; HLM assay reference compounds; read-out: intrinsic clearance values of HLM assay reference compounds

COMPOUND	CLint scaled at 0.5 μM
CC(=O)CC(c1ccccc1)c1c(O)c2ccccc2oc1=O (stereo not shown) [Warfarin, reference compound]	< 10 mL/min/kg
